- Test system: SF-539 CNS
- runDescription: NCI tumour cell line growth inhibition, 48 h; in the data active = GI50 below about 0.43 µM; inactive = the rest
Permitted responses: yes = active, no = inactive

Answered cases to consult:
[[record]]
compound = "CC(CN(CP(=O)([O-])[O-])CP(=O)([O-])[O-])N(CP(=O)([O-])[O-])CP(=O)([O-])[O-].N[C@@H]1CCCC[C@@H]1N.[Pt+2] (stereo not given)"
label = "no"

[[record]]
compound = "Cc1ccc(/C=C2\\CCOC2=O)cc1"
label = "no"

[[record]]
compound = "CN(C)CCn1cc(-c2ccc3c(Nc4ccc(CC(=O)Nc5cccc(F)c5)cc4)ncnc3c2)cn1"
label = "yes"

[[record]]
compound = "CNCCNc1nc2ccccc2c2c(=O)c3cccc(OC)c3sc12"
label = "no"


Field: next compound
Query string: What classification did `Cc1ccc(/C=C(\C#N)n2nnc3cc(F)c(F)cc32)cc1` end up with in this test?
Result string: no
